Where these numbers come from: PubChem BioAssay (NCI)

System: MDA-MB-435 melanoma
Assay protocol: NCI-60 one-dose screen, 48 h (100 = growth as untreated, 0 = no growth, -100 = all killed)
Test conditions: 10 µM unless noted
Procedure: Growth inhibition of the MDA-MB-435 human Melanoma tumor cell line is measured as a screen for anti-cancer activity. Cells are grown in 96 well plates and exposed to the test compound for 48 hours. Compounds are tested at a single concentration, which is 10^-5 M for most compounds. The reported endpoint is percent growth (GI% or GIPRCNT), where numbers from 0 - 100% represent growth inhibition, and numbers from -100% - 0 represent cell death. […]
About 83,000 compounds went through this panel and 20% of them were active in at least one assay; those are over-represented in the sample as a whole.
growth for assorted molecules
Just the number please, in %, no unit attached.

Illustrative cases are given below, each with its answer.
The molecule listed as "Cc1cccc(C)c1NCc1nnc(-c2ccco2)o1" shows growth equal to 103

The molecule listed as "O=C(O)C(C(=O)O)c1cccc2ccccc12" shows growth equal to 102

The molecule listed as CCN(CC)c1ccc2c(c1)Oc1nc(N)c(C#N)c(N)c1C2Sc1ccc(OC)cc1 (stereo not given) shows growth equal to -26.8

The molecule listed as "CC(C)(C)c1nc2c(s1)c1nc(N)ncc1c1ccc(NS(=O)(=O)c3c(F)cccc3F)c(F)c12" shows growth equal to 38.6

Lab note: next molecule to report on.
The molecule listed as "Cc1cc(Nc2nc(SCc3ccc(C(=O)Nc4ccc(F)cc4N)cc3)nn3cccc23)n[nH]1" shows growth equal to 12.8
